- Tested on: VDR:RXRa (NR concentration 270 nM, RXRa partner concentration 90 nM)
- Measurement Protocol: PBM binding z-score (relative to random genomic background probes); higher = stronger binding; sequences stand for … in GC…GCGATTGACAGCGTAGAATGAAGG
Property Label: PBM binding z-score

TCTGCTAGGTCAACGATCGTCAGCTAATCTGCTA	1.03
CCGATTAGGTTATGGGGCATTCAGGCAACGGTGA	0.0574
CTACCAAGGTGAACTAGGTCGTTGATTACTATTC	3.56
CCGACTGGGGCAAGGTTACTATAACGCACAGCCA	0.0885
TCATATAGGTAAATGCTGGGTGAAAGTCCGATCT	0.641
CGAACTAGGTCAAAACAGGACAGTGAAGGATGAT	1.99
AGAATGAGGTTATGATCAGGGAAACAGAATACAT	1.11
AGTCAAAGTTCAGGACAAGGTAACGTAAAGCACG	2.55
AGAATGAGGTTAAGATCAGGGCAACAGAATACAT	2.23
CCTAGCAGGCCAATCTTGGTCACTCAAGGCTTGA	-0.601
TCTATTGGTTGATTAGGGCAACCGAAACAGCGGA	0.547
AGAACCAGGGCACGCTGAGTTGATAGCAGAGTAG	0.532
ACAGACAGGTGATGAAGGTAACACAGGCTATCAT	0.561
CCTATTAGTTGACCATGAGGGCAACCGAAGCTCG	1.02
